Recorded values, source paper PMC13313556.

- study-system: P-glycoprotein (MDR1) (Homo sapiens, UniProt P08183)
- Construct: host or cells: MDR1-MDCK cell monolayers
- Sequence (P08183 whole entry): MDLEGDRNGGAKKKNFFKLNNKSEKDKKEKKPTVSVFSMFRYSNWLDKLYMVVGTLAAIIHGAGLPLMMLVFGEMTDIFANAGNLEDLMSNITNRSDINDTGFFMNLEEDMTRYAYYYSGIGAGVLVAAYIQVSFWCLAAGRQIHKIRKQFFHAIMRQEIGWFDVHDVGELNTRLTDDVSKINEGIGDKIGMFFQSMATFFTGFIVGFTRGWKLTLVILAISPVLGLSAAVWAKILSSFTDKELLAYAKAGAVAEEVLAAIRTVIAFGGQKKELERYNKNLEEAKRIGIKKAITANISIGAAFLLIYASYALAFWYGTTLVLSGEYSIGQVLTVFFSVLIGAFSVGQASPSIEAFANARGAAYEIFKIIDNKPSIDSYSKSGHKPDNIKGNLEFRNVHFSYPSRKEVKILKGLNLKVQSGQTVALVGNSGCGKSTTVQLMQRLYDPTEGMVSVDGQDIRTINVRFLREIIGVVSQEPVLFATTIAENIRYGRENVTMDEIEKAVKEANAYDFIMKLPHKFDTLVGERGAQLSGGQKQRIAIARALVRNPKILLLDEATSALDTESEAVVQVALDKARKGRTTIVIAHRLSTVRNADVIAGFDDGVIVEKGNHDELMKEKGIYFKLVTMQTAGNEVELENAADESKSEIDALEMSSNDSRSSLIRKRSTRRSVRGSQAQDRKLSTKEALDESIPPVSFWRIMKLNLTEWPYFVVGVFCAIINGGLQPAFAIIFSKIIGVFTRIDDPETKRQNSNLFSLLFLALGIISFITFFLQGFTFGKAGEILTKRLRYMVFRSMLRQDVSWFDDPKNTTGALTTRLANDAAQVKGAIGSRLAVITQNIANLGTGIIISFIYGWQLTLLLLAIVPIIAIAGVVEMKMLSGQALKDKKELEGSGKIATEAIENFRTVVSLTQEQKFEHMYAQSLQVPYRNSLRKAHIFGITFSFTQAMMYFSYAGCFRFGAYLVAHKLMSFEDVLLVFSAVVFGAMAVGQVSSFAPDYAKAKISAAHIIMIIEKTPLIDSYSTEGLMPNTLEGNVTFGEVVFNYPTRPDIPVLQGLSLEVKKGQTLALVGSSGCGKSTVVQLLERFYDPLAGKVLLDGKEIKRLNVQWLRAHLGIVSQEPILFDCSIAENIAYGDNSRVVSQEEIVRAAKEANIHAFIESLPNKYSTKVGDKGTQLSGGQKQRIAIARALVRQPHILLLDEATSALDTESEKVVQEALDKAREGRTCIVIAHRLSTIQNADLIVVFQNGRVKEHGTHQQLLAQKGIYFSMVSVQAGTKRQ
- run-description: MDR1-MDCK permeability and efflux
- Format: in vitro ADME
- conditions-used: dog, MDCK-MDR1, pH 7.4, 5 μM, 120 minutes; read-out: Papp A-to-B, R1
result-type: Papp A→B at 120 min, 5 μM (×10⁻⁶ cm/s)
Provide only the numeric value, understood in ×10⁻⁶ cm/s.

{"compound": "COc1cc(Cn2nnc3c2CCc2c-3cc(Cn3ccnc3C)cc2C2CC2)ccc1F [C3TD343]", "result-type": "Papp A→B at 120 min, 5 μM", "reported": 0.131}

Now look at this one.
Input line: What value of Papp A→B at 120 min, 5 μM has been reported for the following compound? COc1cc(CN2CCc3c(cc(Cn4ccn(C)c4=N)cc3-c3ccc(F)cc3C)C2=O)cc(OC)c1 [C16, reference compound]
Output line: 0.556
